biological target: Sialate O-acetylesterase (Homo sapiens); experiment: human SIAE inhibitors, retest, confirmation, biochemical, fluorescence polarization, FP-Rh probe, triplicate (AID 1117263); settings: SIAE FP-Rh activity-based probe, at 9.66 µM, active compounds read high;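 further: 0% = SIAE with DMSO and probe and 100% = probe without SIAE; inhibitors lower polarization as more probe stays unbound to SIAE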
Among all 2,300 compounds or so, about 300 (13%) were called active. Not all results are given here.
Give inhibition for every item shown.
One number for each entry, in %.

Observe how each entry below is paired with its result.
Return the recorded inhibition value; entry: "CCOC(=O)C1=C(c2ccccc2)O/C(=C(/C(=O)OC)C(F)(F)F)S1" -7.25

Retrieve inhibition measured for "O=C(NN=C1CCC(=NNC(=O)c2cccnc2)CC1)c1cccnc1" and print it. 6.57

Please supply the value of reported inhibition for the item "COc1ccc(NC(=O)/C(N=Nc2cccc(S(=O)(=O)Nc3ccc(SC(F)F)cc3)c2)=C(\C)O)cc1" -11.2

Record inhibition per entry; entries follow.
1. O=C(N/N=C/c1sc(N2CCCCC2)nc1-c1cccs1)c1cccnc1
2. NS(=O)(=O)c1ccc(NC(=O)COC(=O)c2c3c(nc4ccccc24)/C(=C\c2ccc4c(c2)OCO4)CCC3)cc1

1. 16.6
2. -152
